# Lookup of reported Signal decrease keyed by entry
# system-tested: T1, biotin-labeled human CD137 fused to human IgG1 Fc fragment (human, biotin-labeled)
# T1 construct: Immobilised on streptavidin beads through biotin; also called human CD137-Fc; biotin-human CD137-Fc
# protocol-description: competitive bead ELISA, decrease of signal on biotin-human CD137-Fc with 125 pmol/well free CD3 epsilon peptide against 0
A number alone suffices; assume %.

dBBDu123 (antibody, human IgG1, V domains shown, IgG: VH joined to human IgG1 CH1-Fc, GLS3000 as light chain; also called DADU01_3_#018; DADU01_3 #018) VH: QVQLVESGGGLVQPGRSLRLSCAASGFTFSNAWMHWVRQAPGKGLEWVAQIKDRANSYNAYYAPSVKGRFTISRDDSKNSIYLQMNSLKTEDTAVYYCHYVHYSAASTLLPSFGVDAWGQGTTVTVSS VL: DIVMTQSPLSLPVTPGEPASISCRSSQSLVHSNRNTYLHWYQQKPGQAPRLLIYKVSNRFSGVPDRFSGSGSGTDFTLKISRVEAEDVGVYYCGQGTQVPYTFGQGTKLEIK    33
dBBDu139 (antibody, human IgG1, V domains shown, IgG: VH joined to human IgG1 CH1-Fc, GLS3000 as light chain) VH: QVQLVESGGGLVQPGRSLRLSCAASGFTFSNAWMHWVRQAPGKGLEWVAQIKDRGNAYNAYYAESVKGRFTISRDDSKNSIYLQMNSLKTEDTAVYYCRFVHYRHPLLHIQYGVDAWGQGTTVTVSS VL: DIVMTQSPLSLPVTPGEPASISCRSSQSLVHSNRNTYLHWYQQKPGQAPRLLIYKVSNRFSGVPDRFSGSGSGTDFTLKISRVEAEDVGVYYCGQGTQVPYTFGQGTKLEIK    79.6

Consider the additional binder presented here.
Signal decrease recorded for this binder, dBBDu174 (antibody, human IgG1, V domains shown, IgG: VH joined to human IgG1 CH1-Fc, GLS3000 as light chain) VH: QVQLVESGGGLVQPGRSLRLSCAASGFTFSSAWMHWVRQAPGKGLEWVAQIKDRASAYNAYYAESVKGRFTISRDDSKNSIYLQMNSLKTEDTAVYYCRYVHYPSYVSFLPYYGVDAWGQGTTVTVSS VL: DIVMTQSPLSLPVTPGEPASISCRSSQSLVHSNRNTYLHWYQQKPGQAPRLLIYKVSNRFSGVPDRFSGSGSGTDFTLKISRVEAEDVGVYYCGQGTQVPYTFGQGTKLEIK , is 60.8
